target_of_assay: UniProt P49759
Sequence (P49759 whole entry, looked up): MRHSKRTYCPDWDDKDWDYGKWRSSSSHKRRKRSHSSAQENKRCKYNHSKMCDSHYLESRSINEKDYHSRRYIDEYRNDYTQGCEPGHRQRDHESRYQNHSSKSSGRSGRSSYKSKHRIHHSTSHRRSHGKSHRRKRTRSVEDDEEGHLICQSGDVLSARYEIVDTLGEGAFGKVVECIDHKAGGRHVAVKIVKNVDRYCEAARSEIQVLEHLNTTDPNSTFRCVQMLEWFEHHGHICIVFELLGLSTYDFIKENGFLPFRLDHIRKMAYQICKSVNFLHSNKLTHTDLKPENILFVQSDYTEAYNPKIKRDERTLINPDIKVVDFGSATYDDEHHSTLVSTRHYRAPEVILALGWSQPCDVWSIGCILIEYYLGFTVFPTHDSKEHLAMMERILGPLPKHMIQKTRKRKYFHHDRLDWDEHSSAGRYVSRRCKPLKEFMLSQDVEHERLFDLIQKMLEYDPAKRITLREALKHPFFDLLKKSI
assay_comment: KINOMEscan competition binding
run_conditions: compound 10.0 µM
Binning of kinase still bound, per cent of control into classes: bottom bin: < 10%; middle bin: ≥ 10% and < 70%; top bin: ≥ 70%

| compound | class_name |
| --- | --- |
| C=CC(=O)Nc1cccc(Nc2nc(N[C@H]3CC[C@H](N(C)C)CC3)nc3c2ncn3C(C)C)c1 | bottom bin |
| CCC(=O)N1CCN(c2ccc(-n3c(=O)ccc4cnc5ccc(-c6cnc7ccccc7c6)cc5c43)cc2C(F)(F)F)CC1 | middle bin |
| C=CC(=O)Nc1cc(NC(=O)c2ccc(C)c(NC(=O)c3ccno3)c2)cc(C(F)(F)F)c1 | top bin |
| COc1cc(C(=O)NC2CCN(C)CC2)ccc1Nc1ncc2c(n1)N(C1CCCC1)C(C)CC(=O)N2C (centres undefined) | middle bin |
| CN(C)C/C=C/C(=O)Nc1cccc(Nc2ncc3c(n2)N(C)c2ccccc2C(=O)N3C)c1 | middle bin |
| Cc1ccc(C(=O)Nc2cccc(C(F)(F)F)c2)cc1Nc1cncc(C(N)=O)c1 | top bin |
| OCCCNc1cc(-c2ccnc(Nc3cccc(Cl)c3)n2)ccn1 | bottom bin |

Continue with the compound presented below.
*Q* Hi, small favor: classify `Nc1ccc(-c2ccc3ncc4ccc(=O)n(-c5cccc(C(F)(F)F)c5)c4c3c2)cn1` by its kinase still bound, per cent of control when you get a moment.
*A* middle bin
